Just for reference, patent US12691070B2 is where these values come from.

PROTOCOL DESCRIPTION: LNP size and polydispersity index (PDI) by dynamic light scattering
Format: physicochemical
MEASUREMENT SETUP: LNP with cirRNA (SEQ ID NO: 1); in nm (unit assumed)
The label t is reserved for Size strictly under 90; f covers values equal to or above it.

# TODO verify Size < 90 strictly for this molecule: CCCCCCCCC(CCCCCCCC)OC(=O)CCCCCCCN(CCCCCCCCOC(=O)C(CCCCCC)CCCCCCCC)CCCOC(=O)NCCN1CCCCCC1 (stereo not shown) f

# TODO verify Size < 90 strictly for this molecule: CCCCCCCCC(CCCCCCCC)OC(=O)CCCCCCCN(CCCCCCCCOC(=O)C(CCCCCC)CCCCCCCC)CCCOC(=O)NCCN1CCC1 (stereo not shown) f

# TODO verify Size < 90 strictly for this molecule: CCCCCCCCCC(=O)OCCCCCCCN(CCCCCCCCOC(=O)C(CCCCCC)CCCCCCCC)CCOC(=O)NCCCN(C)C (stereo not shown) t

# TODO verify Size < 90 strictly for this molecule: CCCCCCCCCC(=O)OCCCCCCCN(CCCCCCCCOC(=O)C(CCCCCC)CCCCCCCC)CCCOC(=O)NCCN1CCCC1 (stereo not shown) f

# TODO verify Size < 90 strictly for this molecule: CCCCC/C=C\CCOC(=O)CCCCCN(CCCCCCCCOC(=O)C(CCCCCC)CCCCCCCC)CCOC(=O)NCCN1CCCCC1 (stereo not shown) t
